# target: FLT3 (wt) (Homo sapiens (Human), UniProt P36888)
# Sequence (P36888 610-943): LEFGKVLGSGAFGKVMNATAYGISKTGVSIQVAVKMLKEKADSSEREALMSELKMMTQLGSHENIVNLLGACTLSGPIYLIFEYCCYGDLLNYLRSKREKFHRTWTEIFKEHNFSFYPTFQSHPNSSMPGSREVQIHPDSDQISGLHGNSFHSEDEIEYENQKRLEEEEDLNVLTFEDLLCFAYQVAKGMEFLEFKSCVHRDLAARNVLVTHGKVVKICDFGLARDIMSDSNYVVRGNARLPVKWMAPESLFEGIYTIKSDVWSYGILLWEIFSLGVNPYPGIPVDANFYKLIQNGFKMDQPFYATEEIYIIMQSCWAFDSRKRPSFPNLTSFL
# assay_name: FLT3 kinase radiometric HotSpot assay, FLT3 (wt)
# Type: biochemical
Here the recorded Ki is given for each entry.

# molecule, result
rows = [
    ("COc1ccc(-c2nn(-c3ccc4c(c3)CNC4)c3c2cnc2ccccc23)cc1OC [Compound 1.33]", "0.5 to 2 nM"),
    ("COc1ccc(-c2nn(-c3ccc4c(c3)CCNC4)c3c2cnc2ccccc23)cc1OC [Compound 1.32]", "0.5 to 2 nM"),
    ("COc1ccc2ncc3c(-c4ccc(OC)c(OC)c4)nn(-c4ccc5c(c4)CNC5)c3c2c1 [Compound 1.36]", "< 0.5 nM"),
    ("COc1ccc2ncc3c(-c4ccc(OC)c(OC)c4)nn(-c4ccc5c(c4)CNCC5)c3c2c1 [Compound 1.34]", "< 0.5 nM"),
    ("COc1ccc(-c2nn(-c3ccc4c(c3)CNCC4)c3c2cnc2ccccc23)cc1OC [Compound 1.31]", "< 0.5 nM"),
]

Here is the next item to consider.
The molecule listed as COc1ccc2ncc3c(-c4ccc(OC)c(OC)c4)nn(-c4ccc5c(c4)CCNC5)c3c2c1 [Compound 1.35] shows Ki equal to < 0.5 nM
